Target: EGFR wildtype (WT) (Homo sapiens)
Experiment: Biochemical EGFR kinase inhibition assay (Lance Ultra TR-FRET), wildtype
Settings: IC50 WT (nM), 100 μM ATP
Experimental: Biochemical EGFR kinase assays were conducted using Lance Ultra time-resolved fluorescence resonance energy transfer (TR-FRET) technology from Perkin-Elmer. […] Each kinase reactions were incubated at room temperature for 1 hour and then stopped by the addition of 4 μL of stop solution (10 mM EDTA). […] After 60 minutes incubation at room temperature the LANCE signal was measured on an EnVision Multilabel Reader (Perkin-Elmer). […]
measuredEndpoint: IC50

Recorded IC50, per entry:
| molecule | measuredEndpoint | observedResult |
| --- | --- | --- |
| CC1(CO)CCN(c2cc(Nc3ccnc(-c4cnn(S(=O)(=O)C5CC5)c4)n3)ncc2C#Cc2cnn3c2CN(CC(F)F)CC3)CC1 | IC50 | > 10000 nM |
| CC1OCCC1C#Cc1cnc(Nc2ccnc(-c3cnn(S(=O)(=O)C4CC4)c3)n2)cc1NC1CCC(O)CC1 (centres unmarked) | IC50 | 8720 nM |
| O=S(=O)(C1CC1)n1cc(-c2nccc(Nc3cc(N4CCC(F)(CO)CC4)c(C#Cc4cnn(CC(F)(F)F)c4)cn3)n2)cn1 | IC50 | > 10000 nM |

Input: Give the reported IC50 for "CN(C)CCC1CCN(c2cc(Nc3ccnc(-c4cnn(S(=O)(=O)C5CC5)c4)n3)ncc2C#CC2(C)CC2)CC1" (system: EGFR wildtype (WT) (Homo sapiens)).
Output: 1260 nM

Input: Give the reported IC50 for "CNCC1(F)CCN(c2cc(Nc3ccnc(-c4cnn(S(=O)(=O)C5CC5)c4)n3)ncc2C#Cc2cnn(C)c2)CC1" (system: EGFR wildtype (WT) (Homo sapiens)).
Output: 5000 nM

Input: Give the reported IC50 for "CN(C)Cc1ccc(C#Cc2cnc(Nc3ccnc(-c4cnn(S(=O)(=O)C5CC5)c4)n3)cc2N2CCC(C)(CO)CC2)cc1" (system: EGFR wildtype (WT) (Homo sapiens)).
Output: 248 nM

Input: Give the reported IC50 for Cn1cc(C#Cc2cnc(Nc3ccnc(-c4cnn(S(=O)(=O)C5CC5)c4)n3)cc2N2CCCC(CF)C2)cn1 (centres unmarked) (system: EGFR wildtype (WT) (Homo sapiens)).
Output: > 10000 nM

Input: Give the reported IC50 for CC(O)C1CCN(c2cc(Nc3ccnc(-c4cnn(S(=O)(=O)C5CC5)c4)n3)ncc2C#Cc2cnn(C)c2)CC1 (centres unmarked) (system: EGFR wildtype (WT) (Homo sapiens)).
Output: > 10000 nM

Input: Give the reported IC50 for "O=S(=O)(C1CC1)n1cc(-c2nccc(Nc3cc(N4CCC(O)CC4)c(C#Cc4cnn(CCF)c4)cn3)n2)cn1" (system: EGFR wildtype (WT) (Homo sapiens)).
Output: > 10000 nM

---

Molecular target: EGFR Del19/T790M/C797S (Homo sapiens, UniProt P00533, C797S/DEL746-750/T790M)
Sequence (P00533 with tags, fused parts or gaps DEL746-750/T790M/C797S): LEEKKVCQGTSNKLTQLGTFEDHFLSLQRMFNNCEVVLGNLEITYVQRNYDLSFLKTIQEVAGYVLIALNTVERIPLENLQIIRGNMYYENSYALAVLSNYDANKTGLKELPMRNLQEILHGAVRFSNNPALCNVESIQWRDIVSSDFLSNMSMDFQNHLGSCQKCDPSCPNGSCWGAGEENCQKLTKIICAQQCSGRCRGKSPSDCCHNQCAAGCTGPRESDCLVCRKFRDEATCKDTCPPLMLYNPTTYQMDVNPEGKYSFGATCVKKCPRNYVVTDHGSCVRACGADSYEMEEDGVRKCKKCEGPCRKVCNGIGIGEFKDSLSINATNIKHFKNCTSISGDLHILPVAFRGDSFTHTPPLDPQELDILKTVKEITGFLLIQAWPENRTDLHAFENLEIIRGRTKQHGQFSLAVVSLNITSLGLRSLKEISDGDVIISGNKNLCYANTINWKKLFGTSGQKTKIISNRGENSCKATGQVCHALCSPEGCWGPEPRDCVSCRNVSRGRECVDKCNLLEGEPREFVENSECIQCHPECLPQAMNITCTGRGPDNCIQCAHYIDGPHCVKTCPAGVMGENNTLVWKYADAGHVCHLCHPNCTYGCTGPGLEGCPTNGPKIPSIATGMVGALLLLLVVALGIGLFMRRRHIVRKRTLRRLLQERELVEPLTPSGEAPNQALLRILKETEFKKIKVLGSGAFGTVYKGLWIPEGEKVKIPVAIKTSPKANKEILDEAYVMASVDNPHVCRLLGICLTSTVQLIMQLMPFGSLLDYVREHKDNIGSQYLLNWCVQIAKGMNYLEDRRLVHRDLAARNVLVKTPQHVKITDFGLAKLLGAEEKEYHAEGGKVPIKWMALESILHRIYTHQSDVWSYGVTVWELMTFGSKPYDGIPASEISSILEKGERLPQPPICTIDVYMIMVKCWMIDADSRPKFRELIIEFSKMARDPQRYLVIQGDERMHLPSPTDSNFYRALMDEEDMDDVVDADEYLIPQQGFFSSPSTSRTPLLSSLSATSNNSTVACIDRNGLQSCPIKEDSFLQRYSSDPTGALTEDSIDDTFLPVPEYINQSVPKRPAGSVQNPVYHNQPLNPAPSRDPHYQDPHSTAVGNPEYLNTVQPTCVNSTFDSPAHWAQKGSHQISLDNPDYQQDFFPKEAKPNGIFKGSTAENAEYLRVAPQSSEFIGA
Experiment: Biochemical EGFR kinase inhibition assay (Lance Ultra TR-FRET), triple mutant del19/T790M/C797S
Settings: Km ATP; read-out: IC50 Del19/T790M/C797S (nM) Km ATP
measuredEndpoint: IC50 (nM)

| molecule | IC50 / nM |
| --- | --- |
| CC1(CO)CCN(c2cc(Nc3ccnc(-c4cnn(S(=O)(=O)C5CC5)c4)n3)ncc2C#Cc2cnn(C3CC3)c2)CC1 | 2.1 |
| O=S(=O)(C1CC1)n1cc(-c2nccc(Nc3cc(N4CCC(CO)C4)c(C#Cc4cnn(CCF)c4)cn3)n2)cn1 (centres unmarked) | 2.1 |
| CCC(C)Nc1cc(Nc2ccnc(-c3cnn(S(=O)(=O)C4CC4)c3)n2)ncc1C#Cc1cnn(C)c1 (centres unmarked) | 2.7 |
| Cn1cc(-c2cc(Nc3ccnc(-c4cnn(S(=O)(=O)C5CC5)c4)n3)ncc2C#Cc2cnn(CCF)c2)cn1 | 4.1 |
| CC(C)Nc1cc(Nc2ccnc(-c3cnn(S(=O)(=O)C4CC4)c3)n2)ncc1C#Cc1cnn(CC(F)F)c1 | 1.6 |

(a) O=S(=O)(C1CC1)n1cc(-c2nccc(Nc3cc(N4CCC(F)(CO)CC4)c(C#Cc4cnn(C5CCOCC5)c4)cn3)n2)cn1
(b) COC1CCN(c2cc(Nc3ccnc(-c4cnn(S(=O)(=O)C5CC5)c4)n3)ncc2C#Cc2cnn(C3CCOCC3)c2)CC1
Input: # compare IC50 for a vs b ; return the one with the smaller value Respond with the label that goes with your answer.
Output: a

---

Molecular target: EGFR Del19/C797S (Homo sapiens, UniProt P00533, C797S/DEL746-750)
Sequence (P00533 with tags, fused parts or gaps DEL746-750/C797S): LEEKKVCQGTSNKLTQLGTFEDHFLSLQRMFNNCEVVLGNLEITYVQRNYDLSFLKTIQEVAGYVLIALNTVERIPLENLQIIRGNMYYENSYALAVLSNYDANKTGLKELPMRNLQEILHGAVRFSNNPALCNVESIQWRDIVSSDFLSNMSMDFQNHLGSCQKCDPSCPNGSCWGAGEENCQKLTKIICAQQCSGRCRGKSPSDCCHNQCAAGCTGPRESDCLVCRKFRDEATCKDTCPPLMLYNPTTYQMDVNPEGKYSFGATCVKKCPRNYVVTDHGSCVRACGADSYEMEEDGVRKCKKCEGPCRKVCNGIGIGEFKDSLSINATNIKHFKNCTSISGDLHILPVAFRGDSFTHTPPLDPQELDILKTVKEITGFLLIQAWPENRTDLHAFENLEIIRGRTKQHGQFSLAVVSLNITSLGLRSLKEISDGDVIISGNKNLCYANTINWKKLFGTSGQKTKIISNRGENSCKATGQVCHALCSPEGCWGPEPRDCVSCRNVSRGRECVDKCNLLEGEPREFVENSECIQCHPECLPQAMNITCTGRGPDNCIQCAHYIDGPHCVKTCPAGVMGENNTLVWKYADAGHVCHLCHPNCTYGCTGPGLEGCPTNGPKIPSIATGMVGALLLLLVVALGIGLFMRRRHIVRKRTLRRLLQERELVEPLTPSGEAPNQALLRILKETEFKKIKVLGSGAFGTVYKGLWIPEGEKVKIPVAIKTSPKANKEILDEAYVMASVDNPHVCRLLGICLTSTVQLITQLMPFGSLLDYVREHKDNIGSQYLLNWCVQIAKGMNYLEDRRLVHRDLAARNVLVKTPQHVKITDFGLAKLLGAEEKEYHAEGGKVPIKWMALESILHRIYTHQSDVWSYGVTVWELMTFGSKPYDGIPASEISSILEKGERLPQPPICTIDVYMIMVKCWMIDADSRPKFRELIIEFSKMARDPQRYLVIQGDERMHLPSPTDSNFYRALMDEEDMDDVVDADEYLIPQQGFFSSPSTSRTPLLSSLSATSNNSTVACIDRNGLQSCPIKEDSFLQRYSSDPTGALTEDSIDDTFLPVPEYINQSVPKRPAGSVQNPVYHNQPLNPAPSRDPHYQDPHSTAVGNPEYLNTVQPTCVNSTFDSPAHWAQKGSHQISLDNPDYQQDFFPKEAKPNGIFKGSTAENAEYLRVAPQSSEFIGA
Assay: Biochemical EGFR kinase inhibition assay (Lance Ultra TR-FRET), double mutant del19/C797S
Settings: IC50 Del19/C797S (nM), 100 μM ATP
measuredEndpoint: IC50 (nM)

Recorded IC50, per entry:
| compound | IC50 / nM |
| --- | --- |
| CS(=O)(=O)N1CCC(C#Cc2cnc(Nc3ccnc(-c4cnn(S(=O)(=O)C5CC5)c4)n3)cc2NCC2CCC(O)CC2)C1 (stereo not shown) | 44.3 |
| O=S(=O)(C1CC1)N1CCC(C#Cc2cnc(Nc3ccnc(-c4cnn(S(=O)(=O)C5CC5)c4)n3)cc2NC2CCC(CO)CC2)C1 (stereo not shown) | 7.9 |
| COC1CCN(c2cc(Nc3ccnc(-c4cnn(S(=O)(=O)C5CC5)c4)n3)ncc2C#Cc2cnn(C)c2)CC1 | 6.4 |
| CC1(CO)CCN(c2cc(Nc3ccnc(-c4ccc(F)nc4)n3)ncc2C#Cc2cnn(C(F)(F)F)c2)CC1 | 1950 |
| Cn1cc(C#Cc2cnc(Nc3ccnc(-c4cnn(S(=O)(=O)C5CC5)c4)n3)cc2N2CCCC(O)C2)cn1 (stereo not shown) | 5.1 |

(a) CN(C)CC1CCN(c2cc(Nc3ccnc(-c4cnn(S(=O)(=O)C5CC5)c4)n3)ncc2C#Cc2cnn(C3CC3)c2)CC1
(b) CC1(CO)CCN(c2cc(Nc3ccnc(-c4cnn(S(=O)(=O)C5CC5)c4)n3)ncc2C#Cc2cccc(C(=O)N3CCOCC3)c2)CC1
Input: # compare IC50 for a vs b ; return the one with the smaller value Respond with the label that goes with your answer.
Output: b

(P) CC(C)(C#Cc1cnc(Nc2ccnc(-c3cnn(S(=O)(=O)C4CC4)c3)n2)cc1N[C@H]1CC[C@@H](O)CC1)N1CCOCC1
(Q) CC1(C#Cc2cnc(Nc3ccnc(-c4cnn(S(=O)(=O)C5CC5)c4)n3)cc2NC[C@H]2CC[C@H](CO)CC2)CC1
(R) CN(C)Cc1ccc(C#Cc2cnc(Nc3ccnc(-c4cnn(S(=O)(=O)C5CC5)c4)n3)cc2N2CCC(C)(CO)CC2)cn1
(S) COC1(O)CCN(c2cc(Nc3ccnc(-c4cnn(S(=O)(=O)C5CC5)c4)n3)ncc2C#Cc2ncc(CN3CCOCC3)cn2)CC1
Input: Order the records so the highest IC50 appears first and the lowest last. Put the labels in the requested order and write them down.
Output: P, Q, S, R

---

Molecular target: EGFR Del19/C797S (Homo sapiens, UniProt P00533, C797S/DEL746-750)
Experiment: Biochemical EGFR kinase inhibition assay (Lance Ultra TR-FRET), double mutant del19/C797S
Settings: ATP at Km; read-out: IC50 Del19/C797S (nM), Km ATP
measuredEndpoint: IC50 (nM)

Recorded IC50, per entry:
| compound | observedResult |
| --- | --- |
| O=S(=O)(C1CC1)n1cc(-c2nccc(Nc3cc(NC4CCC(O)CC4)c(C#CC4CCOC4)cn3)n2)cn1 (stereo not drawn) | 2.1 |
| CN(C)CC1CCN(c2cc(Nc3ccnc(-c4cnn(S(=O)(=O)C5CC5)c4)n3)ncc2C#Cc2cnn(CC(F)F)c2)CC1 | 7.2 |
| CCc1cnc(C#Cc2cnc(Nc3ccnc(-c4cnn(S(=O)(=O)C5CC5)c4)n3)cc2N[C@@H]2CCC[C@H](O)C2)s1 | 67.9 |
| CC1(CO)CCN(c2cc(Nc3ccnc(-c4cnn(S(=O)(=O)C5CC5)c4)n3)ncc2C#CCCO)CC1 | 0.4 |

(P) CN1CCN(Cc2ccc(C#Cc3cnc(Nc4ccnc(-c5cnn(S(=O)(=O)C6CC6)c5)n4)cc3N3CCC(C)(CO)CC3)cc2)CC1
(Q) CC(C)(O)[C@H]1CC[C@@H](Nc2cc(Nc3ccnc(-c4cnn(S(=O)(=O)C5CC5)c4)n3)ncc2C#Cc2ccc(CN3CCOCC3)cc2)CC1
Input: Which entry has a larger number for IC50, P or Q ? Respond with the label that goes with your answer.
Output: Q
(Q: 44.8 nM, P: 0.9 nM)

---

Target: EGFR wildtype (WT) (Homo sapiens, UniProt P00533)
Sequence (P00533 25-1210): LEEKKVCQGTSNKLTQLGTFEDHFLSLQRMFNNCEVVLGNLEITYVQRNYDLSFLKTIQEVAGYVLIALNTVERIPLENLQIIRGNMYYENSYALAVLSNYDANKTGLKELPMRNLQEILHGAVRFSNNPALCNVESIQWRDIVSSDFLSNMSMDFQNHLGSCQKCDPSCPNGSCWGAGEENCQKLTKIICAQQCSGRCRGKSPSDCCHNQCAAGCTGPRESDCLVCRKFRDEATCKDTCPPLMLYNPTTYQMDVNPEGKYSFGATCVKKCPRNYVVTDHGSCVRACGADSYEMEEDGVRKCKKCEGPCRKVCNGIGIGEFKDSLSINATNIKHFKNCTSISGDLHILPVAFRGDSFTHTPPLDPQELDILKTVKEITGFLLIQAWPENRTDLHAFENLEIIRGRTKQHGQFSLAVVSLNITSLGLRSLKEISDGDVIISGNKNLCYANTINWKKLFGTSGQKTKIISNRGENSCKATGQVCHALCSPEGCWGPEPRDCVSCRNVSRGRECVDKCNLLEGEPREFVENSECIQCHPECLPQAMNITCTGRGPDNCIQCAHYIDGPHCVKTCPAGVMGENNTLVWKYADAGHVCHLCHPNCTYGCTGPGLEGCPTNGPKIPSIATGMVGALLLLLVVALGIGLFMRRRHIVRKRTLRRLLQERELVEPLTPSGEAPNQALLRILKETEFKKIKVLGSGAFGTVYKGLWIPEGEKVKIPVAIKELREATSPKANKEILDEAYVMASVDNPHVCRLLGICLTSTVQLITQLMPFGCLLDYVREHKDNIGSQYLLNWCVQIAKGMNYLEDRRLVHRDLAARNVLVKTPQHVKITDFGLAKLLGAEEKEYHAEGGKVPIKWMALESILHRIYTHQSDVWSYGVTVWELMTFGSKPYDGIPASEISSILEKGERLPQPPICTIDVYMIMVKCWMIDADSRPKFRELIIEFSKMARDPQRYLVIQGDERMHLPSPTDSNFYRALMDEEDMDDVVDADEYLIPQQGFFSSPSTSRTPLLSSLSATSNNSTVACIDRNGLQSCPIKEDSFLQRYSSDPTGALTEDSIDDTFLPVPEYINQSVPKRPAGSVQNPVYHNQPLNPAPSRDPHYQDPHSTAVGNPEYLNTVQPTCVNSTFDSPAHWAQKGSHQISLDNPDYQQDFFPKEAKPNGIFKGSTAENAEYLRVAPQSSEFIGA
Assay: Biochemical EGFR kinase inhibition assay (Lance Ultra TR-FRET), wildtype
Details: Km ATP; read-out: IC50 WT (nM), Km ATP
measuredEndpoint: IC50 (nM)

| compound | IC50 / nM |
| --- | --- |
| O=S(=O)(C1CC1)n1cc(-c2nccc(Nc3cc(N[C@H]4CC[C@@H](O)CC4)c(C#CC4COC4)cn3)n2)cn1 | 11.3 |

(A) O=S(=O)(C1CC1)n1cc(-c2nccc(Nc3cc(NCC4CCC(O)CC4)c(C#CC4CCCO4)cn3)n2)cn1 (stereo not shown)
(B) O=S(=O)(C1CC1)n1cc(-c2nccc(Nc3cc(N4CCC(F)(CO)CC4)c(C#Cc4cnn(CC(F)(F)F)c4)cn3)n2)cn1
(C) CN(C)CCC1CCN(c2cc(Nc3ccnc(-c4cnn(S(=O)(=O)C5CC5)c4)n3)ncc2C#CC2(C)CC2)CC1
Input: Arrange the 3 compounds by rising IC50, starting with the smallest. Put the labels in the requested order and write them down.
Output: C, B, A
